These entries and their values trace back to PubChem BioAssay.

Molecular target: Calmodulin-1 (Homo sapiens)
Test: calcium-bound CALM1 binders on microarrays, profiling panel, artefact control for SMM control-protein annotation, biochemical, small-molecule microarray, Cy5-labelled CALM1, plus calcium (AID 1112);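 also: score merges spot fluorescence with signal to noise from triplicate slides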
Conditions: Cy5-CALM1 binding fluorescence, higher = more signal
Would you mind labelling by composite z-score? At or over -0.08 is Yes, under is No.

Previously resolved entries follow.
CCCC[C@@H]1C[C@H]1[C@@H](NC(=O)c1cccs1)c1ccc(C(F)(F)F)cc1 = No
COC(=O)[C@@]1(Cc2ccccc2)[C@H]2c3cc(C(=O)N(C)C)n(CCc4ccc(O)c(OC)c4)c3C[C@H]2CN1C(=O)c1ccccc1 = No
O=C1O[C@@H](c2ccccc2)[C@@H](c2ccccc2)N2[C@@H](c3ccccc3OCCO)[C@]3(C(=O)Nc4ccc(C#CCCO)cc43)[C@@H](C(=O)N3CCCCCCC3)[C@H]12 = Yes
C=CCOC(=O)[C@H]1[C@@H]2C(=O)O[C@@H](c3ccccc3)[C@@H](c3ccccc3)N2[C@@H](c2ccc(OCCOC(=O)[C@@H]3C[C@@H]4C(=O)N5CCC[C@H]5C(=O)N4[C@@H]3c3ccc(O)cc3)cc2)[C@]12C(=O)Nc1ccc(I)cc12 = Yes
CC(CO)N1C(=O)[C@@H]2[C@H]3C(=O)OCC=C[C@H]3OC23C=CCN(Cc2ccccc2)C(=O)[C@@H]13 (stereo partly drawn) = No

**Query** # bool: composite z-score of "COCCOC(=O)N1C(=O)[C@@]2(c3cc(C#CC4=CCCCC4)ccc31)[C@H](c1ccc(OCCO)cc1)N1[C@H](c3ccccc3)[C@H](c3ccccc3)OC(=O)[C@H]1[C@@H]2C(=O)N1CCN(c2ncccn2)CC1" >= -0.08
**Result** Yes

**Query** In plain terms: is recorded composite z-score at least -0.08 for CN1C(=O)C2C=CC(C(O)C#Cc3ccccc3)N(Nc3ccccc3)C2C1=O (stereo not drawn) ?
**Result** Yes

**Query** Hello, I need to know if "CO[C@H]1O[C@H](CO)[C@@H](OC(=O)Nc2ccccc2-c2ccccc2)[C@H](OC(=O)Nc2ccc3c(c2)OCO3)[C@H]1OC(=O)Nc1ccc2c(c1)OCO2" has measured composite z-score not below -0.08. Thanks!
**Result** No

**Query** Item "COC(=O)C(CC#Cc1ccc2c(c1)[C@]1(C(=O)N2)[C@H](c2ccccc2OCCO)N2[C@H](c3ccccc3)[C@H](c3ccccc3)OC(=O)[C@H]2[C@@H]1C(=O)NC[C@H](O)c1ccccc1)C(=O)OC" with composite z-score of -0.08 or above?
**Result** No

**Query** Reported composite z-score reaches at least -0.08 for "Cc1ccc(S[C@]2(C(=O)NCC(F)(F)F)CC(=O)N(C3CCCCC3)[C@@H]2c2ccc(CO)cc2I)cc1" ?
**Result** Yes

**Query** Reported composite z-score reaches at least -0.08 for "COC(=O)[C@@]1(Cc2ccccc2)[C@H]2c3cc(C(=O)N(C)C)n(Cc4c(CO)[nH]cc(C)c4=O)c3C[C@H]2CN1C(=O)c1ccccc1" ?
**Result** Yes

**Query** Check if composite z-score >= -0.08 (inclusive). Item: "COc1ccc(NC(=O)O[C@H]2[C@H](OC(=O)Nc3ccccc3)[C@H](OC(=O)Nc3ccccc3)[C@@H](OC)O[C@@H]2CO)cc1"
**Result** No

**Query** Could you please find out whether "CCCCO[C@H]1C[C@H]2C(I)=C[C@@H]1C(=O)[C@]21CO1" has composite z-score that meets -0.08 or exceeds it?
**Result** No
